# Tested on: Haemophilus influenzae
# MEASUREMENT DESCRIPTION: Antibacterial activity against ampicillin-resistant Haemophilus influenzae 3300 by broth microdilution method
# Assay type: functional
Listed below: log10 MIC values for each entry.
MEASURE NAME: log10 MIC (log10 of the value in µg/mL)

{"CHEMICAL SMILES": "CC[C@H]1OC(=O)[C@H](C)[C@@H](OC(=O)NCc2ccc(OC)cc2)[C@H](C)[C@@H](O[C@@H]2O[C@H](C)C[C@H](N(C)C)[C@H]2O)[C@](C)(OC)C[C@@H](C)C(=O)[C@@H](C)[C@@H](OC)[C@]1(C)O", "REPORTED MEASUREMENT": -0.30}
{"CHEMICAL SMILES": "CC[C@H]1OC(=O)[C@H](C)[C@@H](OC(=O)NCCCOC)[C@H](C)[C@@H](O[C@@H]2O[C@H](C)C[C@H](N(C)C)[C@H]2O)[C@](C)(OC)C[C@@H](C)C(=O)[C@@H](C)[C@@H](OC)[C@]1(C)O", "REPORTED MEASUREMENT": 1.20}
{"CHEMICAL SMILES": "CCCCCNC(=O)O[C@H]1[C@H](C)[C@@H](O[C@@H]2O[C@H](C)C[C@H](N(C)C)[C@H]2O)[C@](C)(OC)C[C@@H](C)C(=O)[C@@H](C)[C@@H](OC)[C@](C)(O)[C@@H](CC)OC(=O)[C@@H]1C", "REPORTED MEASUREMENT": 0.60}
{"CHEMICAL SMILES": "CC[C@H]1OC(=O)[C@H](C)[C@@H](OC(=O)NC2CCCCC2)[C@H](C)[C@@H](O[C@@H]2O[C@H](C)C[C@H](N(C)C)[C@H]2O)[C@](C)(OC)C[C@@H](C)C(=O)[C@@H](C)[C@@H](OC)[C@]1(C)O", "REPORTED MEASUREMENT": 0.60}
{"CHEMICAL SMILES": "CC[C@H]1OC(=O)[C@H](C)[C@@H](OC(=O)NCCc2ccccc2F)[C@H](C)[C@@H](O[C@@H]2O[C@H](C)C[C@H](N(C)C)[C@H]2O)[C@](C)(OC)C[C@@H](C)C(=O)[C@@H](C)[C@@H](OC)[C@]1(C)O", "REPORTED MEASUREMENT": 1.20}
{"CHEMICAL SMILES": "CC[C@H]1OC(=O)[C@H](C)[C@@H](OC(=O)NCCc2ccc(OC)cc2)[C@H](C)[C@@H](O[C@@H]2O[C@H](C)C[C@H](N(C)C)[C@H]2O)[C@](C)(OC)C[C@@H](C)C(=O)[C@@H](C)[C@@H](OC)[C@]1(C)O", "REPORTED MEASUREMENT": 1.20}
{"CHEMICAL SMILES": "CCOCCCNC(=O)O[C@H]1[C@H](C)[C@@H](O[C@@H]2O[C@H](C)C[C@H](N(C)C)[C@H]2O)[C@](C)(OC)C[C@@H](C)C(=O)[C@@H](C)[C@@H](OC)[C@](C)(O)[C@@H](CC)OC(=O)[C@@H]1C", "REPORTED MEASUREMENT": 0.90}
{"CHEMICAL SMILES": "CC[C@H]1OC(=O)[C@H](C)[C@@H](OC(=O)NCCc2ccc(O)cc2)[C@H](C)[C@@H](O[C@@H]2O[C@H](C)C[C@H](N(C)C)[C@H]2O)[C@](C)(OC)C[C@@H](C)C(=O)[C@@H](C)[C@@H](OC)[C@]1(C)O", "REPORTED MEASUREMENT": 0.90}
{"CHEMICAL SMILES": "CCCCOCCCNC(=O)O[C@H]1[C@H](C)[C@@H](O[C@@H]2O[C@H](C)C[C@H](N(C)C)[C@H]2O)[C@](C)(OC)C[C@@H](C)C(=O)[C@@H](C)[C@@H](OC)[C@](C)(O)[C@@H](CC)OC(=O)[C@@H]1C", "REPORTED MEASUREMENT": 1.81}
